# assayed-target: T1, human serum albumin (human, UniProt P02768 25-609)
# T1 construct: Amine-coupled to the chip (EDC/NHS); also called HSA
# T1 sequence (P02768 25-609 limits assumed): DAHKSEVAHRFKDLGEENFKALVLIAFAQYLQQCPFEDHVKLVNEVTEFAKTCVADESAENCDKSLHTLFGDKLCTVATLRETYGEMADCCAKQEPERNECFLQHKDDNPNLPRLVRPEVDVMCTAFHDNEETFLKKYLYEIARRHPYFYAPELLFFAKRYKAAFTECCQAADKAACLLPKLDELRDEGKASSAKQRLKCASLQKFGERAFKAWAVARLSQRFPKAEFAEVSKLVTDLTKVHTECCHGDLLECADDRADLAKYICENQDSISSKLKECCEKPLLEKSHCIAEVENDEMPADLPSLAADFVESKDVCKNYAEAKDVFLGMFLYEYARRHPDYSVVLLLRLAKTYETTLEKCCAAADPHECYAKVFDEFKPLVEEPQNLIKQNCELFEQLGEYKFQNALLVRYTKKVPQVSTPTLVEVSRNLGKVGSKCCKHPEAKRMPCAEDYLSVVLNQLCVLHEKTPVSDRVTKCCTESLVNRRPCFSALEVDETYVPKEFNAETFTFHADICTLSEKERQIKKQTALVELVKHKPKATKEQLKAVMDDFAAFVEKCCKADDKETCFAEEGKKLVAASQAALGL
# procedure-details: ProteOn kinetic analysis
Reported kon values are given for each entry in this list.
Note: unit M⁻¹ s⁻¹ is implicit; provide only the numeric part.

# binder, kon (M⁻¹ s⁻¹)
measured = [
    ("SEQ ID NO 10 (VHH, also called R at position 30) VHH: EVQLVESGGGVVQPGGSLRLSCAASGFTFRSFGMSWVRQAPGKGPEWVSSISGSGSDTLYADSVKGRFTISRDNSKNTLYLQMNSLRPEDTALYYCTIGGSLSRSSQGTLVTVSS", "1e+06"),
]

Sure, the documented kon for SEQ ID NO 127 (VHH, also called T at position 30) VHH: DVQLVESGGGVVQPGGSLRLSCAASGFTFTSFGMSWVRQAPGKGPEWVSSISGSGSDTLYADSVKGRFTISRDNSKNTLYLQMNSLRPEDTALYYCTIGGSLSRSGQGTLVTVSS is 730000

kon reading for SEQ ID NO 145 (VHH, also called T at position 30) VHH: DVQLVESGGGVVQPGGSLRLSCAASGFTFTSFGMSWVRQAPGKGPEWVSSISGSGSDTLYADSVKGRFTISRDNSKNTLYLQMNSLRPEDTAAYYCTIGGSLSRSGQGTLVTVSS : 690000

Record SEQ ID NO 129 (VHH, also called T at position 30) VHH: DVQLVESGGGVVQPGGSLRLSCAASGFTFTSFGMSWVRQAPGKGPEWVSSISGSGSDTLYADSVKGRFTISRDNSKNTLYLQMNSLRPEDTATYYCTIGGSLSRSGQGTLVTVSS , field kon: 710000
